Several reports have described IC50 for Coagulation factor XI (Homo sapiens); a selection of those results is presented here.
Answers are plain numbers, in nM.

O=C1Nc2ccc(Cl)c(F)c2[C@@]2(CCCN(C(=O)c3cnc(C(O)c4ccc(F)cc4)[nH]3)C2)O1 (single isomer, unassigned): 3850
N#Cc1cccc(-c2cnc(C(CC3CC3)c3ccc(-c4cc(Cl)ccc4-n4cnnn4)c[n+]3[O-])[nH]2)c1 (single isomer, unassigned): 27.4
CC(c1cnc(N2C[C@H]3C[C@H]3C2=O)nc1CO)n1cc(NC(=O)c2cncc(-c3c(C(F)F)ccc(Cl)c3F)n2)cn1 (stereo in doubt): 2200

// IC50 lookup, compound = C[C@@H](O)c1cnc2cc(NC(=O)[C@@H]3CCC4CC(c5c(-n6cnnn6)ccc(Cl)c5F)=CC(=O)N43)ccc2n1 (single isomer, unassigned) , result: 6.4

----------
Several reports have described log10(IC50) for Coagulation factor XI (Homo sapiens, UniProt P03951); a selection of those results is presented here.
Please note: log10 values; quantity IC50; unit nM.

Observe how each entry below is paired with its result.
Nc1c(C(=O)N2CCC[C@@]3(C2)OC(=O)Nc2ccc(Cl)c(F)c23)cnn1-c1ccnc2c(F)cccc12: 2.75
Nc1c(C(=O)N2CCC[C@@]3(C2)OC(=O)Nc2ccc(Cl)c(F)c23)cnn1Cc1ccc(F)c(F)c1: 2.64
Cc1cc(C(=O)NC(C)C)ccc1-c1ccc(CC(NC(=O)[C@H]2CC[C@H](CN)CC2)C(=O)Nc2ccc3cn[nH]c3c2)cc1 (mixture of isomers): 0.26
C[C@@H]1CCC[C@@H](c2ccc(-c3cc(Cl)ccc3-n3cc(Cl)nn3)oc2=O)c2cc(ccn2)-c2c(cnn2C(F)F)NC1=O (single isomer, unassigned): 0.59

// below: log10(IC50) requested for another compound
// log10(IC50) lookup, compound = O=C1Nc2ccc(Cl)c(F)c2[C@@]2(CCCN(C(=O)c3cnn(Cc4ccccc4)c3)C2)O1 , result: 3.14

----------
pIC50: −log10 of the molar value.
Several reports have described pIC50 for Coagulation factor XI (Homo sapiens); a selection of those results is presented here.
Tag: yes if measured pIC50 is not below 8, no if it is.

Record excerpt, results attached:
CN(C(=O)[C@@H]1[C@@H](Cc2ccnc(N)c2)C(=O)N1C(=O)N[C@@H](C1CCCCC1)C(F)(F)F)c1ccncc1: yes
CC[C@@H](NC(=O)N1C(=O)[C@H](Cc2ccnc(N)c2)[C@H]1C(=O)N(C)c1nccn1C)c1ccc(C)c(F)c1F: yes
CCC(C(=O)Nc1ccc(C(N)=O)nc1)n1cc(OC)c(-c2cc(Cl)ccc2C#N)cc1=O (stereo not shown): no
COc1cn([C@@H](CCOC(C)(C)C)C(=O)Nc2ccc(C(=O)O)s2)c(=O)cc1-c1cc(Cl)ccc1OCC(F)(F)F (single isomer, unassigned): yes
CC[C@@H](NC(=O)N1C(=O)[C@H](Cc2ccnc(N)c2)[C@H]1C(=O)N(C)c1ccncc1)c1ccccc1Cl: yes
CC(C1CC1)(n1ncc(C(=O)N2CCC[C@@]3(C2)OC(=O)Nc2ccc(Cl)c(F)c23)c1N)C(F)(F)F (single isomer, unassigned): no
O=C(Nc1ccc2c(c1)C1(CCCC1)C(=O)N2)[C@@H]1CC[C@@H]2CC(c3c(-n4cnnn4)ccc(Cl)c3F)=CC(=O)N21: no
COc1cn(C(C[C@@H]2CCCCO2)C(=O)Nc2ccc(C(=O)O)cc2)c(=O)cc1-c1cc(Cl)ccc1OCC(F)(F)F (single isomer, unassigned): yes

Request: Would you say CCC(c1cccc(S(C)(=O)=O)c1)n1cc(C(=O)N2CCC[C@@]3(C2)OC(=O)Nc2ccc(Cl)c(F)c23)cn1 (single isomer, unassigned) shows pIC50 at minimum 8?
Response: no

Request: Would you say O=C1Nc2ccc(Cl)c(F)c2[C@@]2(CCCN(C(=O)c3nc(Cc4ccccc4)c[nH]3)C2)O1 shows pIC50 at minimum 8?
Response: no

----------
Several reports have described pIC50 for Coagulation factor XI (Homo sapiens, UniProt P03951); a selection of those results is presented here.
Answers are plain numbers, as −log10 of the molar value.

Observe how each entry below is paired with its result.
[2H]C([2H])([2H])n1ncc2c1-c1ccnc(c1)C(c1coc(-c3c(-n4cc(Cl)nn4)ccc(Cl)c3F)cc1=O)CCCC(C)C(=O)N2 (stereo not drawn): 8.46
CC(c1cnc(N2CC[C@H]2CN2CCC(O)CC2)nc1)n1cc(NC(=O)c2cncc(-c3c(C(F)F)ccc(Cl)c3F)n2)cn1 (stereo partly drawn): 5.03

// below: pIC50 requested for another compound
// pIC50 lookup, compound = O=C1Nc2ccc(Cl)c(F)c2[C@@]2(CCCN(C(=O)c3cnn([C@H](CC4CC4)c4ccccc4)c3)C2)O1 (single isomer, unassigned) , result: 6.69

----------
Several reports have described IC50 for UniProt P03951; a selection of those results is presented here.

Observe how each entry below is paired with its result.
CC[C@@H](NC(=O)N1C(=O)[C@H](Cc2ccnc(N)c2)[C@H]1C(=O)N(C)c1nccn1C)c1ccc(F)c(F)c1C: < 10 nM
Cc1nc(C(C)n2cc(NC(=O)c3cncc(-c4c(C(F)(F)F)ccc(Cl)c4F)n3)cn2)cnc1N1C[C@H]2C[C@H]2C1=O (single isomer, unassigned): > 10000 nM
C[C@@H](c1cnc(N2CCC2)nc1)n1cc(NC(=O)c2cncc(-c3c(C(F)F)ccc(Cl)c3F)n2)cn1: 1350 nM
N=C(N)c1cn(CC(=O)Nc2cccnc2)c2c(/C=C/C(=O)Nc3cccnc3)cccc12: 1990 nM
CC[C@@H](NC(=O)N1C(=O)[C@H](Cc2ccnc(N)c2)[C@H]1C(=O)N(C)c1cnn(C)c1)c1ccccc1: < 10 nM
CC(c1cnc(N2CC3CC3C2)nc1)n1cc(NC(=O)c2nc(-c3c(C(F)F)ccc(Cl)c3F)cnc2N(C)C)cn1 (single isomer, unassigned): 3330 nM

// below: IC50 requested for another molecule
// IC50 lookup, molecule = Nc1c(C(=O)N2CCC[C@@]3(C2)OC(=O)Nc2ccc(Cl)c(F)c23)cnn1-c1ccccc1OC1CC1 , result: 162 nM

----------
Several reports have described pIC50 for Coagulation factor XI (Homo sapiens, UniProt P03951); a selection of those results is presented here.
pIC50: −log10 of the molar value.
Tag: class 1 if measured pIC50 is not below 8, class 0 if it is.

CC[C@@H](NC(=O)N1C(=O)[C@H](Cc2cc(C)nc(N)c2)[C@H]1C(=O)N(C)c1cnn(C)c1)c1ccc(C)cc1C: class 1
CO[C@@H](C)C[C@@H](C(=O)Nc1ccc(C(N)=O)cc1)n1cc2c(cc1=O)-c1cc(Cl)ccc1C[C@@H](C(F)(F)F)OC2 (single isomer, unassigned): class 1
COc1nn(C(Cc2ccc(F)cc2)C(=O)Nc2ccc(C(=O)O)cc2)c(=O)cc1-c1cc(Cl)ccc1C(C)=O (stereo not drawn): class 0
COC(=O)Nc1ccc(-c2[nH]c(C(CC3CC3)c3ccc(-c4cc(Cl)ccc4-n4cnnn4)c[n+]3[O-])nc2Cl)cc1 (single isomer, unassigned): class 0
O=C(O)c1[nH]c2ccc(NC(=O)[C@@H]3CCC4CC(c5c(-n6cnnn6)ccc(Cl)c5F)=CC(=O)N43)cc2c1F (mixture of isomers): class 1

In the following, a different molecule is considered.
Request: Would you say COC(=O)Nc1ccc(-c2[nH]c([C@@H]3C[C@H](C4CCN(S(C)(=O)=O)CC4)CN3C(=O)/C=C/c3cc(Cl)ccc3-n3cnnn3)nc2Cl)cc1 shows pIC50 at minimum 8?
Response: class 1

----------
Several reports have described IC50 for Coagulation factor XI (Homo sapiens, UniProt P03951); a selection of those results is presented here.
Lab note: cut-off is 200 nM. Strictly less in IC50 is MET. Exactly 200 nM or more is NOT MET.

Record excerpt, results attached:
CC(C)C1Cc2ccc(Cl)cc2-c2cc(=O)n(C(C[C@@H]3COCCO3)C(=O)Nc3ccc(C(N)=O)cc3)cc2CO1 (mixture of isomers): MET
C[C@@H](O)c1ncc(-c2c(C(F)F)ccc(Cl)c2F)nc1C(=O)Nc1cnn(Cc2cnc(N3CCC3)nc2)c1 (single isomer, unassigned): MET

Request: Hello, is IC50 of the following compound strictly smaller than 200 nM? Cn1ncc(-c2cc(N)n(CC(=O)N3CC[C@@]4(C3)OC(=O)Nc3ccc(Cl)c(F)c34)n2)c1C(F)(F)F
Response: MET

----------
Several reports have described IC50 for Coagulation factor XI (Homo sapiens, UniProt P03951); a selection of those results is presented here.
Give bare numbers, in nM.

CC[C@@H](c1ccc(F)cc1)c1ncc(C(=O)N2CCC[C@@]3(C2)OC(=O)Nc2ccc(Cl)c(F)c23)[nH]1 (single isomer, unassigned): 194

Fill in IC50 for each of the 3 molecules listed.
1. CC1(C)CC1CC(C(=O)Nc1ccc(C(=O)O)cc1)c1ccc(-c2c(OC(F)F)ccc(Cl)c2F)c[n+]1[O-] (single isomer, unassigned)
2. O=C(O)c1ccc(NC(=O)[C@H](Cc2ccc(F)cc2)c2ccc(-c3cc(Cl)ccc3-n3cnnn3)c[n+]2[O-])cc1
3. O=C(Nc1cnn(Cc2cnc(N3CCCC3CCO)nc2)c1)c1cncc(-c2c(C(F)F)ccc(Cl)c2F)n1 (single isomer, unassigned)

Response:
1. 0.4
2. 0.26
3. 2250
